The entries below are paired with their reported concentration at 2 h.
Assay: in vivo
Set-up: species or system mice
Conditions: mouse, po, 50 mg/kg
Numbers only here, please. The scale is ng/mL.

COCOC(=O)[C@@H]1N2C(=O)[C@@H](N3C(=O)[C@@H](c4ccc(O)cc4)NC3(C)C)[C@H]2SC1(C)C [Example 8]: 1700

Request: Would you mind telling me what concentration at 2 h value was observed for CC1(C)S[C@@H]2[C@H](NC(=O)[C@H](N)c3ccccc3)C(=O)N2[C@H]1C(=O)O [Cpd. A, ampicillin] ?
Response: 900

Request: Would you mind telling me what concentration at 2 h value was observed for CC1(C)S[C@@H]2[C@H](N3C(=O)[C@@H](c4ccccc4)NC3(C)C)C(=O)N2[C@H]1C(=O)O [Compound 3] ?
Response: 1100

====

Assay: in vivo
Set-up: species or system mice
Details: mouse, po, 50 mg/kg
The entries below are paired with their reported concentration at 1 h.
Numbers only here, please. The scale is ng/mL.

CC1(C)S[C@@H]2[C@H](NC(=O)[C@H](N)c3ccccc3)C(=O)N2[C@H]1C(=O)O [Cpd. A, ampicillin]: 2100

Request: Would you mind telling me what concentration at 1 h value was observed for COCOC(=O)[C@@H]1N2C(=O)[C@@H](N3C(=O)[C@@H](c4ccc(O)cc4)NC3(C)C)[C@H]2SC1(C)C [Example 8] ?
Response: 3500

====

The entries below are paired with their reported concentration at 0.5 h.
Assay: in vivo
Parameters: species or system mice
Conditions: mouse, po, 50 mg/kg
Numbers only here, please. The scale is ng/mL.

Consider the worked cases shown below.
CC1(C)S[C@@H]2[C@H](N3C(=O)[C@@H](c4ccccc4)NC3(C)C)C(=O)N2[C@H]1C(=O)O: 2000
CC1(C)S[C@@H]2[C@H](NC(=O)[C@H](N)c3ccccc3)C(=O)N2[C@H]1C(=O)O: 3300

// moving on: another record for concentration at 0.5 h
Request: Would you mind telling me what concentration at 0.5 h value was observed for `COCOC(=O)[C@@H]1N2C(=O)[C@@H](N3C(=O)[C@@H](c4ccc(O)cc4)NC3(C)C)[C@H]2SC1(C)C` ?
Response: 4800

====

Assay: Oral absorption in man, BL-P1780 Study 101
Conditions: human, saliva, po, 500 mg, mean peak saliva amoxicillin level, man, oral 500 mg.
property: Cmax (ng/mL)
Numbers only here, please. The scale is ng/mL.

Request: Would you mind telling me what Cmax value was observed for `CC1(C)S[C@@H]2[C@H](NC(=O)[C@H](N)c3ccc(O)cc3)C(=O)N2[C@H]1C(=O)O` ?
Response: 30

====

Assay: Oral absorption in man, BL-P1780 Study 101
Conditions: human, urine, po, 500 mg
property: dose excreted at 24 h

Request: Would you mind telling me what dose excreted at 24 h value was observed for `CC1(C)S[C@@H]2[C@H](NC(=O)[C@H](N)c3ccc(O)cc3)C(=O)N2[C@H]1C(=O)O` ?
Response: 50.9%

====

Assay: in vivo
Set-up: species or system mice
Conditions: mouse, po, 50 mg/kg
The entries below are paired with their reported concentration at 3.5 h.
Numbers only here, please. The scale is ng/mL.

COCOC(=O)[C@@H]1N2C(=O)[C@@H](N3C(=O)[C@@H](c4ccc(O)cc4)NC3(C)C)[C@H]2SC1(C)C: 700
CC1(C)S[C@@H]2[C@H](NC(=O)[C@H](N)c3ccccc3)C(=O)N2[C@H]1C(=O)O: 500

// moving on: another record for concentration at 3.5 h
Request: Would you mind telling me what concentration at 3.5 h value was observed for `CC1(C)S[C@@H]2[C@H](N3C(=O)[C@@H](c4ccccc4)NC3(C)C)C(=O)N2[C@H]1C(=O)O` ?
Response: 500
